assay: Human HepG2 cell viability assay in 384 well format; type: toxicity, cell-based; set-up: dose 125 nL, time 70.5 hour; concentration not given beside the values; details: HepG2 cells, read-out: Inhibition
Reported cytotoxicity at 70.5 h values for the following compounds.

Examples with their reported cytotoxicity at 70.5 h follow.
compound="Cc1ccc(C)c(CSc2nnc(C(N)C(C)C)o2)c1 (configuration not stated)" result=-9.25%
compound=CN(Cc1cccnc1)Cc1cn2c(n1)CN(C1CCOCC1)CC2 result=-4.27%
compound=CNc1ncc2c(n1)CN(CCc1ccccc1)C2=O result=-12.7%
compound=O=C(O)c1ccnc(-c2ccnc(N3CCCCCC3)n2)c1 result=17.6%
compound="CC(Cn1ccnc1)NC(=O)NCCc1cccs1 (configuration not stated)" result=-11.6%

Short answer for COc1ccc(CN2CCO[C@H]3[C@H](Oc4ccccn4)CC[C@@H]32)cc1 : cytotoxicity at 70.5 h was -2.38%

Short answer for COc1cccc(OC)c1OCCN1C(=O)CCNC1=O : cytotoxicity at 70.5 h was 26.5%

----------
test: Human HepG2 cell viability assay in 384 well format; format: toxicity, cell-based; design: dose 125 nL, time 70.5 hour; concentration not given beside the values; settings: HepG2 cells, read-out: Inhibition
quantityName: cytotoxicity at 70.5 h (%)
# unit: % | format: bare number

Examples with their reported cytotoxicity at 70.5 h follow.
compound="Cc1ccc(CC(=O)N2CCCCC2Cn2cccn2)cn1 (centres undefined)" quantityname="cytotoxicity at 70.5 h" measurednumber=-0.224
compound=CCc1cc(N[C@@H]2C[C@H]3CC[C@@H]2C3)n2nccc2n1 quantityname="cytotoxicity at 70.5 h" measurednumber=-6.76
compound="N#CCCN(Cc1ccco1)C(=O)CN1CCCC1c1cccs1 (centres undefined)" quantityname="cytotoxicity at 70.5 h" measurednumber=1.44
compound=CN1C[C@H]2C[C@H](C(=O)Nc3cccnc3)[C@@H](C1)O2 quantityname="cytotoxicity at 70.5 h" measurednumber=-11.1
compound=CN1CC[C@H]2OCC[C@@H](C(=O)NCc3ccco3)[C@@H]2C1 quantityname="cytotoxicity at 70.5 h" measurednumber=9.03

Short answer for Cc1ncsc1CCN(C)C(=O)CN1CCOC1=O : cytotoxicity at 70.5 h was 8.27

Short answer for CC(C)Oc1ccc(C(=O)NCc2ccc3c(c2)CCCN3C)cn1 : cytotoxicity at 70.5 h was -2.36

Short answer for Cc1nccn1CCCNC(=O)C1CCCCN1Cc1ccncc1 (centres undefined) : cytotoxicity at 70.5 h was -2.44

Short answer for O=C(NCc1cncc2c1CCN(Cc1ccccc1)C2)C1CC1 : cytotoxicity at 70.5 h was 9.59

Short answer for Cc1cc(=O)n(C)cc1NC(=O)NCc1cccc(F)c1 : cytotoxicity at 70.5 h was -2.73

Short answer for CCc1nc(CN2CCN(C(=O)C3(C#N)CCCC3)CC2)cs1 : cytotoxicity at 70.5 h was -2.5

Short answer for CS(=O)(=O)N1C[C@@H]2CC[C@H](C1)N(C/C=C/c1ccc(F)cc1)C2 : cytotoxicity at 70.5 h was -4.45

----------
test: Human HepG2 cell viability assay in 384 well format; format: toxicity, cell-based; parameters: dose 125 nL, time 70.5 hour; concentration not given beside the values; conditions: HepG2 cells, read-out: Inhibition
quantityName: cytotoxicity at 70.5 h (%)
# unit: % | format: bare number

Examples with their reported cytotoxicity at 70.5 h follow.
compound="COc1ccc(-n2ccc(C(=O)NCCN3CCCCC3C)n2)cc1 (stereo unspecified)" quantityname="cytotoxicity at 70.5 h" measurednumber=7.59
compound="CC(C(=O)NCc1ccc(N2CCNC(=O)C2)cc1)c1cccs1 (stereo unspecified)" quantityname="cytotoxicity at 70.5 h" measurednumber=-4.67
compound=CC(C)(C)CN(CCC#N)C(=O)Cc1ccc(-n2cnnn2)cc1 quantityname="cytotoxicity at 70.5 h" measurednumber=-10.8
compound=N#Cc1cc(N2CCC(CS(N)(=O)=O)CC2)c2ccccc2n1 quantityname="cytotoxicity at 70.5 h" measurednumber=14.9
compound=CC(C)CCN1C[C@H]2C[C@H](C(=O)NCC(C)C)[C@@H](C1)O2 quantityname="cytotoxicity at 70.5 h" measurednumber=-2.84

Short answer for Cc1ccc(CNC(=O)N2CCOCC2C2CC2)cc1F (stereo unspecified) : cytotoxicity at 70.5 h was -8.34

Short answer for Cc1ccccc1CNC(=O)N1CC[C@@H]2CN(C)S(=O)(=O)[C@@H]2CC1 : cytotoxicity at 70.5 h was 17.8

Short answer for COC(=O)CCC(=O)Nc1ccc(Br)c(C)n1 : cytotoxicity at 70.5 h was -0.954

Short answer for Cc1cnn(C2CCCN(C(=O)c3ccc(Cn4ccnc4)cc3)C2)c1 (stereo unspecified) : cytotoxicity at 70.5 h was 17.4

Short answer for Cc1nc(C(Cc2ccsc2)NC(=O)CCN2CCOCC2)sc1C (stereo unspecified) : cytotoxicity at 70.5 h was -7.23

Short answer for Cc1ccc(-c2nc(CC(=O)N3CCN(c4cnccn4)CC3)cs2)o1 : cytotoxicity at 70.5 h was -4.05

src = ChEMBL document CHEMBL3507680
